Biological target: Histone deacetylase 1 (Homo sapiens)
Sequence (Q13547 whole entry): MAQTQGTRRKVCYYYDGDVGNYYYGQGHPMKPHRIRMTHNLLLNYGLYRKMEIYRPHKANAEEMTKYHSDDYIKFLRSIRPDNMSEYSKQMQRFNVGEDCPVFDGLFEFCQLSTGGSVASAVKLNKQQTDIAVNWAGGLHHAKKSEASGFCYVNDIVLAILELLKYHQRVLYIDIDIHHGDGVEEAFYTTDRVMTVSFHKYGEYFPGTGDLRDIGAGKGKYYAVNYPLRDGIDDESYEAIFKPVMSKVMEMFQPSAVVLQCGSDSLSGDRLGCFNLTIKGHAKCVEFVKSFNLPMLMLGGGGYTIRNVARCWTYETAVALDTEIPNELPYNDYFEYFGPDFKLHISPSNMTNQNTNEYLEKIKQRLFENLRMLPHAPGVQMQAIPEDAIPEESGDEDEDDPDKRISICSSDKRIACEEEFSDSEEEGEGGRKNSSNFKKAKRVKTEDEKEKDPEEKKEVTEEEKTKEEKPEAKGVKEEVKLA
pIC50: −log10 of the molar value.
We use 8 as the dividing line for pIC50: on or above the line is t, below is f.

Worked set:
Check the entry CCC(=O)CCCCC[C@H](NC(=O)[C@H]1CC12CCN(C)CC2)c1[nH]c(-c2cccnc2OC)nc1C#N : does pIC50 equal or exceed 8?
f

Check the entry CCC(=O)CCCCC[C@H](NC(=O)[C@H]1CC12CCN(C)CC2)c1[nH]c(-c2ccc(F)cc2)nc1C(N)=O : does pIC50 equal or exceed 8?
t

Check the entry CCC(=O)CCCCC[C@H](NC(=O)[C@H]1CC12CCN(C)CC2)c1[nH]c(-c2ccc(F)cc2F)nc1C#N : does pIC50 equal or exceed 8?
f

Check the entry CCC(=O)CCCCCC(NC(=O)c1cncs1)c1[nH]c(-c2ccccc2)nc1C(=O)NC (stereo not drawn) : does pIC50 equal or exceed 8?
f

Check the entry CCC(=O)CCCCC[C@H](NC(=O)c1ccon1)c1[nH]c(-c2ccc(F)cc2)nc1C#N : does pIC50 equal or exceed 8?
f

Alright, here's another compound for you.
Check the entry CCC(=O)CCCCC[C@H](NC(=O)[C@H]1CC12CCN(C)CC2)c1[nH]c(-c2ccc(F)cc2)nc1C#N : does pIC50 equal or exceed 8?
t
